Overview of recorded RO (%) LC for various compounds
- ASSAY PROTOCOL: Conjugator-antibody conjugate maleimide hydrolysis (ring opening) kinetics by reduced LCMS
- Assay type: physicochemical
- SETTINGS: pH 7, time point 5 h
Kindly write the number and append the unit.

CN(C)C(=O)CN(C)C(=O)OCC(CN)N1C(=O)C=CC1=O (stereo not drawn) : 92.96%
CC(C)N(CCC(=O)N(C)C)C(=O)OCC(CN)N1C(=O)C=CC1=O (stereo not drawn) : 89.36%
CN(C)C(=O)CCOCC(N)CN1C(=O)C=CC1=O (stereo not drawn) : 77.85%
NCC(COC(=O)NCCOCCOCCOCCOCCC(=O)O)N1C(=O)C=CC1=O (stereo not drawn) : 87.91%
CN(C)C(=O)CCCCC(CN)N1C(=O)C=CC1=O (stereo not drawn) : 64.05%

# input Given the compound CN(C)C(=O)CCNC(=O)OCC(CCN)N1C(=O)C=CC1=O (stereo not drawn) , what is its reported RO (%) LC?
# output 10.15%

# input Need RO (%) LC of CN(C)C(=O)CCNC(=O)OCCC(CN)N1C(=O)C=CC1=O (stereo not drawn) , thanks.
# output 74.30%

# input Param item = CN(C)C(=O)CCNC(=O)NCC(CN)N1C(=O)C=CC1=O (stereo not drawn) ; retrieve measured RO (%) LC.
# output 78.30%

# input RO (%) LC for CN(C)C(=O)CCOCCC(CN)N1C(=O)C=CC1=O (stereo not drawn) ?
# output 77.46%

---

- ASSAY PROTOCOL: Conjugator-antibody conjugate maleimide hydrolysis (ring opening) kinetics by reduced LCMS
- Type: physicochemical
- SETTINGS: pH 7, time point 1 h
Values of RO (%) LC greater than or equal to 20% map to satisfied; values below map to not satisfied.

CN(C)C(=O)CCNC(=O)OCCC(CN)N1C(=O)C=CC1=O (stereo not drawn) [3-13] : satisfied
NCC(COC(=O)NCCOCCOCCOCCOCCC(=O)O)N1C(=O)C=CC1=O (stereo not drawn) [3-4] : satisfied
CN(C)C(=O)CN(C)C(=O)OCC(CN)N1C(=O)C=CC1=O (stereo not drawn) [3-8] : satisfied

# input RO (%) LC >= 20% for CN(C)C(=O)CCOCC(N)CN1C(=O)C=CC1=O (stereo not drawn) [3-7] ?
# output satisfied

# input Hello, I need to know if CN(C)C(=O)CCNC(=O)OCC(CCN)N1C(=O)C=CC1=O (stereo not drawn) [3-11] has measured RO (%) LC not below 20%. Thanks!
# output not satisfied

# input Determine whether this molecule has RO (%) LC no lower than 20%: CC(C)N(CCC(=O)N(C)C)C(=O)OCC(CN)N1C(=O)C=CC1=O (stereo not drawn) [3-9]
# output satisfied

# input Would you say CN(C)C(=O)CCCCC(CN)N1C(=O)C=CC1=O (stereo not drawn) [3-10] shows RO (%) LC at minimum 20%?
# output satisfied

# input Is the recorded value of RO (%) LC equal to or greater than 20% for this molecule? CN(C)C(=O)CCOCCC(CN)N1C(=O)C=CC1=O (stereo not drawn) [3-14]
# output not satisfied

# input For this molecule, is measured RO (%) LC 20% or higher? CN(C)C(=O)CCNC(=O)NCC(CN)N1C(=O)C=CC1=O (stereo not drawn) [3-12]
# output satisfied
